These entries and their values trace back to patent US20120142646A1.

molecular target: Adrenergic β2 (Homo sapiens, UniProt P07550); construct: Adherent H292 cells were removed from tissue culture flasks; endogenous in cells; host or cells: H292 cells; assay: Adrenergic β2 mediated cAMP production in H292 cells (AlphaScreen cAMP detection); format: cell-based; parameters: key: fraction of formoterol maximum activity (formoterol = 1); settings: Intrinsic Activity as a fraction relative to the maximum activity determined for formoterol
Sequence (P07550 whole entry): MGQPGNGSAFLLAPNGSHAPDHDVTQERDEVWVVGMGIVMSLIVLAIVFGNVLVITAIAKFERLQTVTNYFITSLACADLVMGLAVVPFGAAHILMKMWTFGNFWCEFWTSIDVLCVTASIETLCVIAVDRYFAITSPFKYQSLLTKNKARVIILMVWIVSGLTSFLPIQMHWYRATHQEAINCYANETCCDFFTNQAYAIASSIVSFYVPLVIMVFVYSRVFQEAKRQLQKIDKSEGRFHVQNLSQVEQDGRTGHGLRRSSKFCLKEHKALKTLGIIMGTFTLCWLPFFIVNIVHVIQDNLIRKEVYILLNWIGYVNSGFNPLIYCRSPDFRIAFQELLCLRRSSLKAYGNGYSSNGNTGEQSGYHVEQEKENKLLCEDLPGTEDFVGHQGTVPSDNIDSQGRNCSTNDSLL
Counter-ions that a name gives are not always drawn.
recorded_metric: β2 Int Act
# respond with the number and nothing more

Examples from the recorded data:
> print(dat)
                                   molecule                              assay.target  quantitative.readout
1  Cl.O=C(CCOCCc1ccc(F)cc1)N(CCNCCc1ccc(O)c2[nH]c(=O)ccc12)C1CCCCC1 [Example 71]  Adrenergic β2 (Homo sapiens, UniProt P07550)                  0.85
2  O=CNc1cc(CCNCCN(C(=O)CCNCCc2ccccc2)C2CCCCC2)ccc1O [Example 21]  Adrenergic β2 (Homo sapiens, UniProt P07550)                  0.83
3  O=C1COc2c(CCNCCN(C(=O)CCNCCc3ccc(F)c(F)c3)C3CCCCCC3)ccc(O)c2N1 [Example 67, bis(trifluoroacetate)]  Adrenergic β2 (Homo sapiens, UniProt P07550)                  0.87
4  O=C1COc2c(CCNCCN(C(=O)CCNCCc3cccc(Cl)c3)C3CCCCCC3)ccc(O)c2N1 [Example 68, bis(trifluoroacetate)]  Adrenergic β2 (Homo sapiens, UniProt P07550)                  0.93
5  CCCC[C@@H](C)N(CCNCCc1ccc(O)c2c1OCC(=O)N2)C(=O)CCNCCc1ccccc1Cl [Example 46, bis(trifluoroacetate)]  Adrenergic β2 (Homo sapiens, UniProt P07550)                  0.89

Supply β2 Int Act measured with Adrenergic β2 (Homo sapiens, UniProt P07550) for O=C1COc2c(CCNCCN(C(=O)CCNCCc3cc(F)cc(Cl)c3)C3CCCCC3)ccc(O)c2N1 [Example 41, bis(trifluoroacetate)] . 0.95

Supply β2 Int Act measured with Adrenergic β2 (Homo sapiens, UniProt P07550) for O=C1COc2c(CCNCCN(C(=O)CCOCCc3ccccc3F)C3CCCCC3)ccc(O)c2N1 [Example 76, trifluoroacetate] . 1.1
